# SYSTEM NAME: hCB1R (Homo sapiens, UniProt P21554)
# Construct: expressed in transfected cells; host or cells: CHO-K1 (ATCC CCL-61) stably expressing hCB1R; membranes
# Sequence (P21554 whole entry): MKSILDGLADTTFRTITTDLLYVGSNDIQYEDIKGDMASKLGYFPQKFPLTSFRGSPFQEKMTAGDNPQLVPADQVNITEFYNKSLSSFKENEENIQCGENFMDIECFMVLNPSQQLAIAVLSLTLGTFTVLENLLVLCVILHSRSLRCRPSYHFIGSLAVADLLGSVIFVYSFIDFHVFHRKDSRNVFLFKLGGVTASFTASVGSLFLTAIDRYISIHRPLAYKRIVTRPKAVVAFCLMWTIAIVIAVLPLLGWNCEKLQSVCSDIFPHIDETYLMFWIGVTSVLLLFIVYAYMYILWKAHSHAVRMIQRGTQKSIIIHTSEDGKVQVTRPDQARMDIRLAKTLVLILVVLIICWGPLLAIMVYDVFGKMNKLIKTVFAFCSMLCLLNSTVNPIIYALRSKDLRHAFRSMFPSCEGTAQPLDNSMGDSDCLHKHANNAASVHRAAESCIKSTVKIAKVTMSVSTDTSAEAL
# METHOD DESCRIPTION: [3H]CP55,940 radioligand displacement, CHO-K1 hCB1R membranes
# Type: binding
# MEASUREMENT SETUP: % [3H]CP55,940 bound, 1 nM radioligand, 2 h
// reported hCB1R E min (% CP55,940) ± S.E.M for each item listed
PARAMETER: hCB1R E min (% CP55,940) ± S.E.M

molecule="Cc1c(Br)cn(CCCc2cn(CCCCC(=O)NC3CCC(NC(=O)c4cc5cccnc5n(Cc5ccc(F)cc5)c4=O)CC3)nn2)c(=O)c1NC(=O)C1CCCCCC1 (stereo not shown) [JR14a]" measured_result="98 ± 2.5 % CP55,940"
molecule="Cc1c(Br)cn(Cc2ccc(F)cc2)c(=O)c1NC(=O)C1CCCCCC1 [EC21a, reference compound]" measured_result="103 ± 2.5 % CP55,940"
molecule="CC1CCC(NC(=O)c2cc3cccnc3n(CCCCCO)c2=O)CC1 (stereo not shown) [LV62, reference compound]" measured_result="106 ± 3.6 % CP55,940"
molecule="Cc1c(Br)cn(CCCCCCCn2c(=O)c(C(=O)NC3CCC(C)CC3)cc3cccnc32)c(=O)c1NC(=O)C1CCCCCC1 (stereo not shown) [JR64a]" measured_result="104 ± 4.7 % CP55,940"

====

# SYSTEM NAME: UniProt:P34972
# Sequence (P34972 whole entry): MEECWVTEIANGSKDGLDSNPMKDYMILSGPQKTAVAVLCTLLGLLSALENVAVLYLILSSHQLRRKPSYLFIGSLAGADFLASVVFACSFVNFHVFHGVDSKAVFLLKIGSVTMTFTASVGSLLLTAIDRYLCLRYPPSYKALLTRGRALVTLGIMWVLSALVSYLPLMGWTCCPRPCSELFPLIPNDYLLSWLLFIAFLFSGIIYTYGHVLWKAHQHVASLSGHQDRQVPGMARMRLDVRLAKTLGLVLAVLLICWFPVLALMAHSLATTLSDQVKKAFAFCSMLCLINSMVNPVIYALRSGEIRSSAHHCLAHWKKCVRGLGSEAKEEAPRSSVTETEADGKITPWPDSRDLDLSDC
# METHOD DESCRIPTION: DiscoveRx PathHunter βarrestin2 recruitment
# Assay type: cell-based
# MEASUREMENT SETUP: CHO-K1 hCB2R, 90 min
// reported βarrestin2 recruitment E max (% CP55,940) ± S.E.M for each item listed
PARAMETER: βarrestin2 recruitment E max (% CP55,940) ± S.E.M

molecule="Cc1c(Br)cn(CCCc2cn(CCCCCn3c(=O)c(C(=O)NC4CCC(C)CC4)cc4cccnc43)nn2)c(=O)c1NC(=O)C1CCCCCC1 (stereo not shown) [JR22a]" measured_result="33 ± 3.1 % CP55,940"
molecule="Cc1c(Br)cn(CCCCOCCCCn2c(=O)c(C(=O)NC3CCC(C)CC3)cc3cccnc32)c(=O)c1NC(=O)C1CCCCCC1 (stereo not shown) [JR60a]" measured_result="36 ± 9.2 % CP55,940"
molecule="Cc1c(Br)cn(Cc2cn(CCCCC(=O)NC3CCC(NC(=O)c4cc5cccnc5n(Cc5ccc(F)cc5)c4=O)CC3)nn2)c(=O)c1NC(=O)C1CCCCCC1 (stereo not shown) [JR16a]" measured_result="27 ± 4.2 % CP55,940"
molecule="Cc1c(Br)cn(CCOCCn2c(=O)c(C(=O)NC3CCC(C)CC3)cc3cccnc32)c(=O)c1NC(=O)C1CCCCCC1 (stereo not shown) [JR58a]" measured_result="51 ± 2.8 % CP55,940"
molecule="Cc1c(Br)cn(CCCCCCCn2c(=O)c(C(=O)NC3CCC(C)CC3)cc3cccnc32)c(=O)c1NC(=O)C1CCCCCC1 (stereo not shown) [JR64a]" measured_result="45 ± 2.4 % CP55,940"
molecule="Cc1c(Br)cn(Cc2cn(CCCCCn3c(=O)c(C(=O)NC4CCC(C)CC4)cc4cccnc43)nn2)c(=O)c1NC(=O)C1CCCCCC1 (stereo not shown) [JR26a]" measured_result="39 ± 6.1 % CP55,940"
molecule="CC1CCC(NC(=O)c2cc3cccnc3n(CCCCCO)c2=O)CC1 (stereo not shown) [LV62, reference compound]" measured_result="65 ± 1.4 % CP55,940"

Data origin: paper PMC9551276
